Each item that follows carries a reported kcat.
Substrate: CC1=C(CCC(=O)O)c2cc3nc(cc4[nH]c(cc5[nH]c(cc1n2)c(C)c5CCC(=O)O)c(CCC(=O)O)c4C)C(CCC(=O)O)=C3C
protocol.text: purified protein
Format: biochemical, Corynebacterium glutamicum
condition.set: ferrous ammonium sulfate 100 uM, Tris-HCl pH 8.0, 3.3% Tween 20, 5 mM glutathione, 30 °C
quantity.measured: kcat

protein="CpfC (coproporphyrin ferrochelatase) (Corynebacterium glutamicum ATCC 13032; T194S) (protein, heterologously expressed in E. coli BL21, purified) MNERTSDAFDALLVLSFGGPEGHEEVRPFLENVTHGRGIPPERLDEVAVHYHHFGGISPINALNREIIANVEKELASRDHKLPVYFGNRNWKPFDNEAAEQMADDGVKNALVLATSAWGGYSGCRQYQEDIQGMIKHLESQGQSITFTKLRQFYDHPRFVSTMAQLVQDSYAKLPDELRDEARLVFTAHSIPLSADNAAGTPEDGSLYSTQVKEASALIAEAVGVSDFDVVWQSRSGSPHTPWLEPDIVDHAVELNEKGQKALVVCPVGFISDHMEVIWDLDSELMEEAEKRNMVVERVATVGPTDEFAALVVDLIEEAELKRVIERLGKLPARGSSVNGAPCGDGCCGTAKHKTARVNPNARSAAPAAN" value_measured="0.32 s⁻¹"
protein="CpfC (coproporphyrin ferrochelatase) (Corynebacterium glutamicum ATCC 13032; E100D/E31V) (protein, heterologously expressed in E. coli BL21, purified) MNERTSDAFDALLVLSFGGPEGHEEVRPFLVNVTHGRGIPPERLDEVAVHYHHFGGISPINALNREIIANVEKELASRDHKLPVYFGNRNWKPFDNEAADQMADDGVKNALVLATSAWGGYSGCRQYQEDIQGMIKHLESQGQSITFTKLRQFYDHPRFVSTMAQLVQDSYAKLPDELRDEARLVFTAHSIPLTADNAAGTPEDGSLYSTQVKEASALIAEAVGVSDFDVVWQSRSGSPHTPWLEPDIVDHAVELNEKGQKALVVCPVGFISDHMEVIWDLDSELMEEAEKRNMVVERVATVGPTDEFAALVVDLIEEAELKRVIERLGKLPARGSSVNGAPCGDGCCGTAKHKTARVNPNARSAAPAAN" value_measured="0.36 s⁻¹"
protein="CpfC (coproporphyrin ferrochelatase) (Corynebacterium glutamicum ATCC 13032; E100D) (protein, heterologously expressed in E. coli BL21, purified) MNERTSDAFDALLVLSFGGPEGHEEVRPFLENVTHGRGIPPERLDEVAVHYHHFGGISPINALNREIIANVEKELASRDHKLPVYFGNRNWKPFDNEAADQMADDGVKNALVLATSAWGGYSGCRQYQEDIQGMIKHLESQGQSITFTKLRQFYDHPRFVSTMAQLVQDSYAKLPDELRDEARLVFTAHSIPLTADNAAGTPEDGSLYSTQVKEASALIAEAVGVSDFDVVWQSRSGSPHTPWLEPDIVDHAVELNEKGQKALVVCPVGFISDHMEVIWDLDSELMEEAEKRNMVVERVATVGPTDEFAALVVDLIEEAELKRVIERLGKLPARGSSVNGAPCGDGCCGTAKHKTARVNPNARSAAPAAN" value_measured="0.36 s⁻¹"
